- Experiment notes: Rapamycin whole blood pharmacokinetics (HPLC-MS/MS, non-compartmental) in dogs with osteosarcoma
- Type: in vivo, dog
- Reported conditions: both sexes, dog, whole blood; all dogs, 0.01–0.08 mg/kg IM, range

>  <Smiles>
CO[C@H]1C[C@@H]2CC[C@@H](C)[C@@](O)(O2)C(=O)C(=O)N2CCCC[C@H]2C(=O)O[C@H]([C@H](C)C[C@@H]2CC[C@@H](O)[C@H](OC)C2)CC(=O)[C@H](C)/C=C(\C)[C@@H](O)[C@@H](OC)C(=O)[C@H](C)C[C@H](C)/C=C/C=C/C=C/1C

>  <Tmax>
2 to 48 h

$$$$

----------
- Experiment notes: Rapamycin whole blood pharmacokinetics (HPLC-MS/MS, non-compartmental) in dogs with osteosarcoma
- Type: in vivo, dog
- Reported conditions: Mixed Breed (2 dogs), Boxer (1 dog), dog, whole blood, intramuscular; 0.04 mg/kg IM daily, trough Day 8, median (range), N=3; read-out: CD8
Readout: concentration at 8 day (ng/mL)

>  <Smiles>
CO[C@H]1C[C@@H]2CC[C@@H](C)[C@@](O)(O2)C(=O)C(=O)N2CCCC[C@H]2C(=O)O[C@H]([C@H](C)C[C@@H]2CC[C@@H](O)[C@H](OC)C2)CC(=O)[C@H](C)/C=C(\C)[C@@H](O)[C@@H](OC)C(=O)[C@H](C)C[C@H](C)/C=C/C=C/C=C/1C

>  <Readout>
concentration at 8 day

>  <Recorded value>
6.62

$$$$

----------
- Experiment notes: Rapamycin whole blood pharmacokinetics (HPLC-MS/MS, non-compartmental) in dogs with osteosarcoma
- Assay type: in vivo, dog
- Reported conditions: dog, whole blood, intramuscular; 0.08 mg/kg IM daily, trough Day 8, median (range), N=4; read-out: CD8
Readout: concentration at 8 day (ng/mL)

>  <Compound>
CO[C@H]1C[C@@H]2CC[C@@H](C)[C@@](O)(O2)C(=O)C(=O)N2CCCC[C@H]2C(=O)O[C@H]([C@H](C)C[C@@H]2CC[C@@H](O)[C@H](OC)C2)CC(=O)[C@H](C)/C=C(\C)[C@@H](O)[C@@H](OC)C(=O)[C@H](C)C[C@H](C)/C=C/C=C/C=C/1C [rapamycin, Rapamycin]

>  <Recorded value>
15.4

$$$$

----------
- Experiment notes: Rapamycin whole blood pharmacokinetics (HPLC-MS/MS, non-compartmental) in dogs with osteosarcoma
- Format: in vivo, dog
- Reported conditions: dog; 0.08 mg/kg IM, after first dose, whole blood, median (range), N=4; read-out: AUC0–48

>  <Smiles>
CO[C@H]1C[C@@H]2CC[C@@H](C)[C@@](O)(O2)C(=O)C(=O)N2CCCC[C@H]2C(=O)O[C@H]([C@H](C)C[C@@H]2CC[C@@H](O)[C@H](OC)C2)CC(=O)[C@H](C)/C=C(\C)[C@@H](O)[C@@H](OC)C(=O)[C@H](C)C[C@H](C)/C=C/C=C/C=C/1C

>  <AUC(0-t) [ng·h/mL]>
309

$$$$

Source of measurements: paper PMC2882366
